Reference for the values: ChEMBL document CHEMBL4834487

assay: Metabolic stability in pig liver homogenate assessed as parent compound remaining measured after 30 mins; format: ADME, tissue-based, Sus scrofa; conditions: read-out: Stabilty
observed-property: remaining at 0.5 h

Problem: Suppose we examine the compound CC(=O)N[C@@H](CCC(=O)Cn1nnc2c(C(N)=O)ncn2c1=O)C(=O)O ; what remaining at 0.5 h value has been reported?
Solution: < 5%

* * *

experiment: Metabolic stability in pig brain homogenate assessed as parent compound remaining measured after 30 mins; assay type: ADME, tissue-based, Sus scrofa; details: read-out: Stabilty
observed-property: remaining at 0.5 h

Problem: Suppose we examine the compound CC(=O)N[C@@H](CCC(=O)Cn1nnc2c(C(N)=O)ncn2c1=O)C(=O)O ; what remaining at 0.5 h value has been reported?
Solution: < 5%
